biological target: ZFP SBS#662 (synthetic, UniProt P08047); assay: EMSA; settings: tags: MBP fusion
Sequence (P08047 other isoform, or with tags, fused parts or gaps): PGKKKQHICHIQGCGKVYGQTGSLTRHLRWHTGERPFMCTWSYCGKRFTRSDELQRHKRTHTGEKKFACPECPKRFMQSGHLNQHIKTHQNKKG
quantity-kind: Kd (µM)

# binder, measured-number
rows = [
    ("AGAGCGGCAC (dsDNA) DNA 1: AGAGCGGCAC DNA 2: GTGCCGCTCT", 0.05),
]
